Target: human GLP-1 receptor (human, UniProt P43220 24-463)
Assay: cell-based or functional assay
Bridges are numbered along the chain shown (N, C = ends). Where no end group is shown, it is not given here. [ ]: non-standard residue; d: D form. The star is where a group is joined. Acetyl(2-(4-imidazolyl)) = O=C(Cc1c[nH]cn1)*; Aib = CC(C)(N)C(=O)O
Measurement name: In vitro activity compared with native peptide (%) vs. GLP-1

binder="Y[Aib]QGTFTSDYSKYLDEKRAKEFVQWLLDHHCSSGQPPPS (bridge 16-20) [Triple agonist of SEQ ID NO: 43]" qualifier_symbol== numeric_result=12.6
binder="Y[Aib]QGTFTSDYSKALDEKAAKEFVNWLLDQHPSSGQPPPSC (bridge 16-20) [Triple agonist of SEQ ID NO: 101]" qualifier_symbol== numeric_result=23.2
binder="{Acetyl(2-(4-imidazolyl))}-GEGTFISDYSIQLDEIAVQDFVEWLLAQKPSSGAPPPSHG [Triple agonist of SEQ ID NO: 13]" qualifier_symbol=< numeric_result=0.1
binder="{Acetyl(2-(4-imidazolyl))}-[Aib]QGTFTSDYSIAMDEKHCKDFVNWLLNTK (bridge 15-19) [Triple agonist of SEQ ID NO: 60]" qualifier_symbol== numeric_result=106
binder="{Acetyl(2-(4-imidazolyl))}-[Aib]QGTFTSDKSKYLDERAAQDFVQWLLDGGPSSGAPPPS [Triple agonist of SEQ ID NO: 62]" qualifier_symbol== numeric_result=5.2
binder="H[Aib]EGTFTSDYSIAMDEIHQKDFVNWLLAQC (bridge 16-20) [Triple agonist of SEQ ID NO: 53]" qualifier_symbol== numeric_result=161
binder="H[Aib]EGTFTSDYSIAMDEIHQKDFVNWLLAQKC (bridge 16-20) [Triple agonist of SEQ ID NO: 79]" qualifier_symbol== numeric_result=41.5
binder="H[Aib]QGTFTSDYSKYLCEKRQKEFVQWLLNGGPSSGAPPPSG (bridge 16-20) [Triple agonist of SEQ ID NO: 36]" qualifier_symbol== numeric_result=37.4
binder="Y[Aib]QGTFTSDCSKYLDERAAKDFVQWLLDHHPSSGQPPPS (bridge 16-20) [Triple agonist of SEQ ID NO: 72]" qualifier_symbol== numeric_result=11.5
binder="H[Aib]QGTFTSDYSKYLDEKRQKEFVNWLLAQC (also: ring formation, positions not given here) [Triple agonist of SEQ ID NO: 56]" qualifier_symbol== numeric_result=57.9
binder="Y[Aib]QGTFTSDYSKALDEKAAKEFVNWLLDHHPSSGQPPPSC (bridge 16-20) [Triple agonist of SEQ ID NO: 98]" qualifier_symbol== numeric_result=28.1
